The measured values listed here are drawn from patent US20160297884A1.

Biological target: T1, cynomolgus monkey BCMA (cynomolgus monkey, UniProt A0A2K5UD97 1-53)
T1 construct: Soluble analyte in SPR; construct not described; also called cyBCMA; Cyno BCMA
T1 sequence (A0A2K5UD97 entry or part of it): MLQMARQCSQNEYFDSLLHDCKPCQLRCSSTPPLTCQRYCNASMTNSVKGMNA
Test: SPR, IgG immobilised, 25 C
Protocol: All experiments were performed on a Bio-Rad Proteon XPR36 surface Plasmon resonance biosensor (Bio-Rad, Hercules, Calif.). […] The analysis temperature for the immobilization was 25° C. and the running buffer was HBS-T+(10 mM HEPES, 150 mM NaCl, 0.05% Tween-20, pH 7.4). […] The analysis temperature for the BCMA binding analysis was 37° C. or 25° C. in a running buffer of HBS-T+, supplemented with 1 mg/mL BSA. […] Immediately after the 50 nM BCMA injection, dissociation was monitored for 2 hours. […]
Kd strictly less than 7 nM = Met. Otherwise Not met.

{"binder": "L1.LGF/L3.PY/H3.AQ (antibody, V domains shown, IgG) VH: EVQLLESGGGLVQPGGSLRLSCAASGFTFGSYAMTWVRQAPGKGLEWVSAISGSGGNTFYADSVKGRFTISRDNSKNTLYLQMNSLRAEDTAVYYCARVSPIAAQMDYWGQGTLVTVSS VL: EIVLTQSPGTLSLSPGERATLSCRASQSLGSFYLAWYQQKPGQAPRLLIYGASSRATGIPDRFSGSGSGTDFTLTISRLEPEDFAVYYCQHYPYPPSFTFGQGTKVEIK", "cat": "Met"}
{"binder": "L1.LGF/L3.KW/H3.AP (antibody, V domains shown, IgG) VH: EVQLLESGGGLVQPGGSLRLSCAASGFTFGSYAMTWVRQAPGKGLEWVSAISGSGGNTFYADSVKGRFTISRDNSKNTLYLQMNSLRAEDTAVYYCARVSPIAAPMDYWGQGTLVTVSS VL: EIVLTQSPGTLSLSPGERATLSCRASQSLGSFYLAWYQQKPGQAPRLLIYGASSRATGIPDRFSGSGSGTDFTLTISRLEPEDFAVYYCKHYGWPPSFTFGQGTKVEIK", "cat": "Not met"}
{"binder": "L3.PY/P6E01 (antibody, V domains shown, IgG) VH: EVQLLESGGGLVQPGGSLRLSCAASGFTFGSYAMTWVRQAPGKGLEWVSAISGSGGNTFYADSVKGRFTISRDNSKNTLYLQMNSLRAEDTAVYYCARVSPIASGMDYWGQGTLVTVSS VL: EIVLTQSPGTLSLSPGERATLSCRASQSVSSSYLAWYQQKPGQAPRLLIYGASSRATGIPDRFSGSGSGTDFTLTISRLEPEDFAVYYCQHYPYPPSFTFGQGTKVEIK", "cat": "Met"}
{"binder": "L1.GDF/L3.NY/P6E01 (antibody, V domains shown, IgG) VH: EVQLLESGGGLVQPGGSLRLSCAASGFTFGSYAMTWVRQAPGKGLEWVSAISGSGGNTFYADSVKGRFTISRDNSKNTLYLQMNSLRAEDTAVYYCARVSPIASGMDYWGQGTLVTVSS VL: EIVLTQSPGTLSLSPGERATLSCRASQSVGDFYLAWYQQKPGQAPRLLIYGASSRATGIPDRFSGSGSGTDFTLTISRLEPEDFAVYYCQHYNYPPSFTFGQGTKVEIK", "cat": "Met"}
{"binder": "L1.GDF/L3.PY/H3.AQ (antibody, V domains shown, IgG) VH: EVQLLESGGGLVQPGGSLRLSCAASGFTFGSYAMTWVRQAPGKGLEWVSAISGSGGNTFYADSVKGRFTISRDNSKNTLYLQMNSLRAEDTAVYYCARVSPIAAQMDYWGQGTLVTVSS VL: EIVLTQSPGTLSLSPGERATLSCRASQSVGDFYLAWYQQKPGQAPRLLIYGASSRATGIPDRFSGSGSGTDFTLTISRLEPEDFAVYYCQHYPYPPSFTFGQGTKVEIK", "cat": "Not met"}
{"binder": "L1.LGF/L3.PY/H3.AP (antibody, V domains shown, IgG) VH: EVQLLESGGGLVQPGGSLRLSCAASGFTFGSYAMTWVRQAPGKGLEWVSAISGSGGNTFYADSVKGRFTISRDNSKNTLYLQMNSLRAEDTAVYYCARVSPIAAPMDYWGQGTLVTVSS VL: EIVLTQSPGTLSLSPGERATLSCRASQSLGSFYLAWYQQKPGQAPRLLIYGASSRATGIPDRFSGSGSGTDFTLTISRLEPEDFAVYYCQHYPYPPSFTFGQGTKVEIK", "cat": "Not met"}
{"binder": "L1.LGF/L3.NY/H3.AQ (antibody, V domains shown, IgG) VH: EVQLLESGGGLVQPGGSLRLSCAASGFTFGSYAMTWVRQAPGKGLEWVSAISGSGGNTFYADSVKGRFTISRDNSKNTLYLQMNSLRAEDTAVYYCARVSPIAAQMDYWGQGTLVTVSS VL: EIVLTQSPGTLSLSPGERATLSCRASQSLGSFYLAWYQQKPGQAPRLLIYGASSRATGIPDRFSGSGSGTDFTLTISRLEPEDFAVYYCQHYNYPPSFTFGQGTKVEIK", "cat": "Met"}
{"binder": "L1.LGF/L3.NY/H3.AL (antibody, V domains shown, IgG) VH: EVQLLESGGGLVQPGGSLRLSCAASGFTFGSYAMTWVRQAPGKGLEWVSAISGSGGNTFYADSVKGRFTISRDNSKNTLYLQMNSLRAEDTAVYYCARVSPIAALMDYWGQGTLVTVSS VL: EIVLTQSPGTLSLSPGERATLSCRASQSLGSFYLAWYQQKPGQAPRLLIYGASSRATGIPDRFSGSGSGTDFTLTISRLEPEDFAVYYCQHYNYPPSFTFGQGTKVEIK", "cat": "Not met"}
{"binder": "L1.LGF/L3.NY/H3.AP (antibody, V domains shown, IgG) VH: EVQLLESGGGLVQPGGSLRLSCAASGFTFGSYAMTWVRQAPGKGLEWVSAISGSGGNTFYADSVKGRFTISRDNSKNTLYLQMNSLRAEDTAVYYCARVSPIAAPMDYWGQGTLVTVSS VL: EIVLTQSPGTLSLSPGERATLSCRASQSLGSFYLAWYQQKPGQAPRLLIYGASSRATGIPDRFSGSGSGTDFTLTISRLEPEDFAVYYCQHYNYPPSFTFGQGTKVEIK", "cat": "Met"}
{"binder": "L1.GDF/L3.KW/H3.AP (antibody, V domains shown, IgG) VH: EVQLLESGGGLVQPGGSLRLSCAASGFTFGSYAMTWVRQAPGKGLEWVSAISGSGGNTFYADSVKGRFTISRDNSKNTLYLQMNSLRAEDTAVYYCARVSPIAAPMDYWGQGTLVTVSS VL: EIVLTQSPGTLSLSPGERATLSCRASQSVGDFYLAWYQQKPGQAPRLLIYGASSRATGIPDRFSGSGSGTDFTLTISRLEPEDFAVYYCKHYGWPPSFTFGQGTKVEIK", "cat": "Not met"}
